Tested on: Caco-2 cell monolayer
Assay: Caco-2 monolayer transport (bioavailability) study, AB and BA directions
Type: in vitro ADME, Homo sapiens
Settings: BA experiment, acceptor side, S2 (22 mg/mL GSE), 90 min
Marks after values point to notes of the source that are not given here.
measurement-kind: Apical Side 90 min

INSERT INTO assay_data (compound, tested_on, result_value) VALUES
  ('O=c1c(O[C@@H]2O[C@H](CO)[C@@H](O)[C@H](O)[C@H]2O)c(-c2ccc(O)cc2)oc2cc(O)cc(O)c12 [K3G, kaempferol-3-glucoside]', 'Caco-2 cell monolayer', '8.1 ± 0.2 ^b,c mg/L'),
  ('O=C(/C=C/c1ccc(O)c(O)c1)O[C@@H](C(=O)O)[C@@H](O)C(=O)O', 'Caco-2 cell monolayer', '0.10 ± 0.01 ^a,b,c mg/L'),
  ('O=C(O)c1cc(O)c(O)c(O)c1', 'Caco-2 cell monolayer', '9.6 ± 0.5 ^b,c mg/L'),
  ('O=c1c(O[C@@H]2O[C@H](CO)[C@@H](O)[C@H](O)[C@H]2O)c(-c2ccc(O)c(O)c2)oc2cc(O)cc(O)c12 [Q3G, quercetin-3-glucoside]', 'Caco-2 cell monolayer', '0.013 ± 0.001 ^b,c mg/L'),
  ('COc1cc(-c2[o+]c3cc(O)cc(O)c3cc2O[C@@H]2O[C@H](CO)[C@@H](O)[C@H](O)[C@H]2O)cc(OC)c1O [M3G, malvidin-3-O-glucoside]', 'Caco-2 cell monolayer', '0.22 ± 0.01 ^c mg/L');

Reference source: paper PMC12248599
